TARGET_UNDER_TEST: Receptor tyrosine-protein kinase erbB-2 (Homo sapiens, UniProt P04626)
Sequence (P04626 whole entry): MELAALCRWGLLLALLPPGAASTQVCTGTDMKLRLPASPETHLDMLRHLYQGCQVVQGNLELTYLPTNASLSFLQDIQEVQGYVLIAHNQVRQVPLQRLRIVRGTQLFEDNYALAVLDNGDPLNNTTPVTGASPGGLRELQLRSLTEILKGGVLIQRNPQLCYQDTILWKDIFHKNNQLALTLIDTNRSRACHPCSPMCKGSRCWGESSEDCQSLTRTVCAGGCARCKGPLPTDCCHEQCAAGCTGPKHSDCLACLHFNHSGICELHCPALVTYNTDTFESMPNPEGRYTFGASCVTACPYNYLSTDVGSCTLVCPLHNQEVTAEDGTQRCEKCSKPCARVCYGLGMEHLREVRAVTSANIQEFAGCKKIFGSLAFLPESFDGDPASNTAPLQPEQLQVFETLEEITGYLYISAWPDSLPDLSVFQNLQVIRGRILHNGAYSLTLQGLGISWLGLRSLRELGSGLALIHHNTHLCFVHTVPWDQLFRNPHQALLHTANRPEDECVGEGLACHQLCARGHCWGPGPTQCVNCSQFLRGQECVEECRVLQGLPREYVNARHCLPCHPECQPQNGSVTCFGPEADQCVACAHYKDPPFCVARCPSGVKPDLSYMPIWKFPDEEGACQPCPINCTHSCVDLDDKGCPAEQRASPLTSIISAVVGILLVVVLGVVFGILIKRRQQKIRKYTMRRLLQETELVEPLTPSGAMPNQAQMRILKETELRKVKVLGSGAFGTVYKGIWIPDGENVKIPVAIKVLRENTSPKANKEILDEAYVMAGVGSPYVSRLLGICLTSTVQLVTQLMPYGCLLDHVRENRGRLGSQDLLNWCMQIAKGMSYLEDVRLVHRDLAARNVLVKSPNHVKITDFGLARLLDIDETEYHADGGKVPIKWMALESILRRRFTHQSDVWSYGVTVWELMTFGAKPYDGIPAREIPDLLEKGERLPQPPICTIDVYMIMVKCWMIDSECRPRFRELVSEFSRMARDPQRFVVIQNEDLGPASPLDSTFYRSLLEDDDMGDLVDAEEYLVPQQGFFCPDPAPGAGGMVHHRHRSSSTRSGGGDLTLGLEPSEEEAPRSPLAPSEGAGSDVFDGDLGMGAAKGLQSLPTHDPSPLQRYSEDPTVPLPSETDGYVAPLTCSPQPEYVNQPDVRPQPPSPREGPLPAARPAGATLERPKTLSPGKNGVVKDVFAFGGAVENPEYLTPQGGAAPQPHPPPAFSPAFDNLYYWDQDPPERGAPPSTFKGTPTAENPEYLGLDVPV
TEST_METHOD_NOTES: Inhibition of ErbB2 by HTRF assay
IC50 strictly less than 60 nM = 1. Otherwise -1.

Reference set (4 entries):
O=C(O[C@H]1CN[C@H](C#Cc2cc3ncnc(Nc4ccc(Sc5ccccn5)cc4)c3s2)C1)N1CCOCC1
-1
O=C(O[C@H]1CN[C@H](C#Cc2cc3ncnc(Nc4ccc5c(c4)c(F)cn5Cc4ccccc4)c3s2)C1)N1CCOCC1
-1
O=C(O[C@H]1CN[C@H](C#Cc2cc3ncnc(Nc4ccc5c(cnn5Cc5ccccc5)c4)c3s2)C1)N1CCOCC1
1
CC(c1cccc(F)c1)n1ncc2cc(Nc3ncnc4cc(C#C[C@@H]5C[C@@H](OC(=O)N6CCOCC6)CN5)sc34)ccc21 (some centres not stated)
-1

Now let's try a different one.
In: Quick check: does "O=C(O[C@H]1CN[C@H](C#Cc2cc3ncnc(Nc4ccc(Oc5ccnc6ccc(F)cc56)c(Cl)c4)c3s2)C1)N1CCOCC1" have IC50 under 60 nM?
Out: -1

* * *

Tested on: Mus musculus
TEST_METHOD_NOTES: Dose normalized AUC in mouse at 10 mg/kg, po after 6 hrs
Assay type: ADME, organism-based
Design: time < 6 hr, dose 10 mg/kg, route oral
CONDITION_CONTEXT: in vivo
Where AUC equals or exceeds 90 ng·h/mL/mg/kg, the correct label is Condition met; where it does not, the label is Condition not met.

In: I'd appreciate it if you could say whether "O=C(O[C@H]1CN[C@H](C#Cc2cc3ncnc(Nc4ccc(Oc5ccccn5)c(Cl)c4)c3s2)C1)N1CCOCC1" has AUC at least equal to 90 ng·h/mL/mg/kg.
Out: Condition not met

In: Repeat with "O=C(O[C@H]1CN[C@H](C#Cc2cc3ncnc(Nc4ccc5c(cnn5Cc5cccc(F)c5)c4)c3s2)C1)N1CCOCC1"
Out: Condition not met

In: Repeat with "O=C(O[C@H]1CN[C@H](C#Cc2cc3ncnc(Nc4ccc5c(cnn5Cc5ccccc5)c4)c3s2)C1)N1CCOCC1"
Out: Condition met

In: Repeat with "O=C(O[C@H]1CN[C@H](C#Cc2cc3ncnc(Nc4ccc(OCc5ccccn5)c(Cl)c4)c3s2)C1)N1CCOCC1"
Out: Condition met

* * *

TARGET_UNDER_TEST: Receptor tyrosine-protein kinase erbB-2 (Homo sapiens)
TEST_METHOD_NOTES: Inhibition of ErbB2 by HTRF assay
pIC50: −log10 of the molar value.
Where pIC50 equals or exceeds 7, the correct label is Criterion met; where it does not, the label is Criterion not met.

Reference set (5 entries):
O=C(O[C@H]1CN[C@H](C#Cc2cc3ncnc(Nc4ccc5c(ccn5Cc5cscn5)c4)c3s2)C1)N1CCOCC1
Criterion not met
O=C(O[C@H]1CN[C@H](C#Cc2cc3ncnc(Nc4ccc(OCc5cccc(F)c5)nc4)c3s2)C1)N1CCOCC1
Criterion not met
Cc1cc(Oc2ccc(Nc3ncnc4cc(C#C[C@@H]5C[C@@H](OC(=O)N6CCOCC6)CN5)sc34)cc2Cl)no1
Criterion not met
O=C(O[C@H]1CN[C@H](C#Cc2cc3ncnc(Nc4ccc(Sc5cccc(F)c5)c(Cl)c4)c3s2)C1)N1CCOCC1
Criterion not met
O=C(O[C@H]1CN[C@H](C#Cc2cc3ncnc(Nc4ccc5c(Oc6ccccn6)cccc5c4)c3s2)C1)N1CCOCC1
Criterion not met

Now let's try a different one.
In: I'd appreciate it if you could say whether "O=C(O[C@H]1CN[C@H](C#Cc2cc3ncnc(Nc4ccc5c(cnn5Cc5cc(F)ccc5F)c4)c3s2)C1)N1CCOCC1" has pIC50 at least equal to 7.
Out: Criterion met

src = ChEMBL document CHEMBL1153281
